organism: Rattus norvegicus; test: DrugMatrix - Regimen: Daily Repeat; format: toxicity, organism-based, Sprague-Dawley; design: regimen Daily Repeat, gender Male, age 6-8 weeks; conditions: in vivo, po, 10 mg/kg, 120 h, tissue Plasma, route oral GAVAGE, dose level Low, time 5 day, […]
recorded_endpoint: URIC ACID (mg/dL)
Use mg/dL as the unit, but write only the number.

COCCOC(=O)C1=C(C)NC(C)=C(C(=O)OC(C)C)C1c1cccc([N+](=O)[O-])c1 (centres undefined) : 0.83
CCOC(=O)C1=C(C)NC(C)=C(C(=O)OC)C1c1cccc([N+](=O)[O-])c1 (centres undefined) : 0.53
COc1ccc2cc([C@H](C)C(=O)O)ccc2c1 : 3.1

Q: Look up URIC ACID for this compound: CC(C)CC(N(C)C)C1(c2ccc(Cl)cc2)CCC1 (centres undefined)
Ans: 1.07

----------
species: Rattus norvegicus; assay: DrugMatrix - Regimen: Daily Repeat; assay type: toxicity, organism-based, Sprague-Dawley; set-up: regimen Daily Repeat, gender Male, age 6-8 weeks; conditions: in vivo, po, 0 mg/kg, 72 h, tissue Blood, route oral GAVAGE, dose level Control, time 3 day, vehicle .5 % CMC
recorded_endpoint: LEUKOCYTE COUNT (x10E3/uL)
Note: unit x10E3/uL is implicit; provide only the numeric part.

Below, each entry is followed by its recorded LEUKOCYTE COUNT result.
Clc1ccc2c(c1)C(N1CCNCC1)=Nc1ccccc1O2 [AMOXAPINE] : 15.93
OC(CCN1CCCCC1)(c1ccccc1)C1CCCCC1 (centres undefined) [TRIHEXYPHENIDYL] : 12.4
CO[C@H]1/C=C/O[C@@]2(C)Oc3c(C)c(O)c4c(c3C2=O)C2=NC3(CCN(CC(C)C)CC3)NC2=C(NC(=O)/C(C)=C\C=C\[C@H](C)[C@H](O)[C@@H](C)[C@@H](O)[C@@H](C)[C@H](OC(C)=O)[C@@H]1C)C4=O [RIFABUTIN] : 13.4

Q: Consider the compound O=[N+]([O-])c1ccccc1 [NITROBENZENE] and give its measured LEUKOCYTE COUNT.
Ans: 11.39

Q: Request the reported LEUKOCYTE COUNT associated with C[C@]1(Cn2ccnn2)[C@H](C(=O)O)N2C(=O)C[C@H]2S1(=O)=O [TAZOBACTAM]
Ans: 16.17

----------
organism: Rattus norvegicus; experiment: DrugMatrix - Regimen: Daily Repeat; assay type: toxicity, organism-based, Sprague-Dawley; set-up: regimen Daily Repeat, gender Male, age 6-8 weeks; details: in vivo, iv, 0 mg/kg, 72 h, tissue Blood, dose level Control, time 3 day, vehicle 100 % SALINE
recorded_endpoint: PLATELET COUNT
The number alone won't do; follow it with the unit.

Solved cases (3 shown):
CC[C@]1(O)C[C@@H]2CN(CCc3c([nH]c4ccccc34)[C@@](C(=O)OC)(c3cc4c(cc3OC)N(C)[C@H]3[C@@](O)(C(=O)OC)[C@H](OC(C)=O)[C@]5(CC)C=CCN6CC[C@]43[C@@H]65)C2)C1 : 1202.83 x10E3/uL
CCc1c2c(nc3ccc(OC(=O)N4CCC(N5CCCCC5)CC4)cc13)-c1cc3c(c(=O)n1C2)COC(=O)[C@]3(O)CC : 1248.67 x10E3/uL
CC(=O)N[C@@H]1[C@H](Oc2c3cc4cc2Oc2ccc(cc2Cl)[C@@H](O[C@@H]2O[C@@H](CO)[C@@H](O)[C@H](O)[C@@H]2NC(C)=O)[C@@H]2NC(=O)[C@H](NC(=O)[C@@H]4NC(=O)[C@H]4NC(=O)[C@@H](Cc5ccc(c(Cl)c5)O3)NC(=O)[C@H](N)c3ccc(O)c(c3)Oc3cc(O)cc4c3)c3ccc(O)c(c3)-c3c(O[C@H]4O[C@H](CO)[C@@H](O)[C@@H](O)[C@@H]4O)cc(O)cc3[C@@H](C(=O)O)NC2=O)O[C@@H](CO)[C@@H](O)[C@@H]1O : 1186.33 x10E3/uL

Lab note: next molecule to report on.
Q: Fill in: PLATELET COUNT of CCC1=C[C@@H]2CN(C1)Cc1c([nH]c3ccccc13)[C@@](C(=O)OC)(c1cc3c(cc1OC)N(C)[C@H]1[C@@](O)(C(=O)OC)[C@H](OC(C)=O)[C@]4(CC)C=CCN5CC[C@]31[C@@H]54)C2 is ___
Ans: 903.17 x10E3/uL
